assay_method_text: qHTS for Inhibitors of Inflammasome Signaling: IL-1-beta AlphaLISA Primary Screen; note: % is set by controls: 0 for no effect and ±100 for the full control effect
measurement_context: THP-1 LPS/ATP IL-1B secretion, 16 h; at 57.5 µM
Among all 360,000 compounds or so, about 17,000 (4.7%) were called active. About 5% were inconclusive and are not listed. Cut-off read from the data, not from the text of the source: active = activity change below about -50%; inconclusive = mostly about -30% to -49%; inactive = weaker than that. What follows is part of a selection rich in actives, with near analogues and random picks from the rest.
# valid calls are true (1) = active, false (0) = inactive; nothing else

Could you please tell me the result logged for CCOC(=O)C1=NOC(Cn2cc(C(C)=O)c(=O)[nH]c2=O)C1 (stereo unspecified) in this assay?
false (0)

Could you please tell me the result logged for CN1CCn2cnc(C(=O)NCC(=O)OC(C)(C)C)c2C1=O in this assay?
false (0)

Could you please tell me the result logged for COc1cc(OC)cc(C(=O)NCCSCc2ccc(Cl)cc2)c1 in this assay?
false (0)

Could you please tell me the result logged for O=[N+]([O-])c1ccc(COc2ccccc2CN2CCOCC2)cc1 in this assay?
false (0)

Could you please tell me the result logged for CC1Oc2ccccc2N(Cc2cccnc2)C1=O (stereo unspecified) in this assay?
false (0)

Could you please tell me the result logged for CN(Cc1ccccc1F)c1cc2c(c3c1ccn3C)C1CCC2O1 (stereo unspecified) in this assay?
false (0)

Could you please tell me the result logged for O=C(Nc1ccccc1F)c1ccccc1-c1ccc(C(F)(F)F)cc1 in this assay?
false (0)

Could you please tell me the result logged for CC12c3ccccc3C(c3ccccc31)C1C(=O)N(Cc3cccnc3)C(=O)C12 (stereo unspecified) in this assay?
true (1)

Could you please tell me the result logged for CC1(C(=O)NS(=O)(=O)c2ccccc2)CCN1C(=O)C1CCCCC1 (stereo unspecified) in this assay?
false (0)

Could you please tell me the result logged for COc1ccc(S(=O)(=O)N(C)C[C@H]2OCc3cnnn3CCCC(=O)N([C@H](C)CO)C[C@H]2C)cc1 in this assay?
false (0)

Could you please tell me the result logged for O=c1[nH]c(NCCO)nnc1Cc1ccc(Cl)cc1 in this assay?
false (0)
